Recorded MIC for the following compounds
tested on: Yersinia pestis (YP; Gram-negative); experiment: microbe, parasite or virus in culture; type: cell-based; settings: read-out: MIC YP
reported-property: MIC (µg/mL)

[[record]]
smi = "CC/N=C(/NCCCOc1c2[nH]c3ccc(Cl)cc3c2cc2c1[nH]c1ccc(Cl)cc12)NCCCN(C)C"
unit = "µg/mL"
censoring_qualifier = "="
observed_measurement = 1

[[record]]
smi = "CN(C)CCOc1c2[nH]c3cc(F)ccc3c2cc2c1[nH]c1cc(F)ccc12"
unit = "µg/mL"
censoring_qualifier = ">"
observed_measurement = 8

[[record]]
smi = "Clc1ccc2[nH]c3c(OCCCNCc4ccc[nH]4)c4[nH]c5ccc(Cl)cc5c4cc3c2c1"
unit = "µg/mL"
censoring_qualifier = "="
observed_measurement = 2

[[record]]
smi = "FC(F)(F)c1c2[nH]c3ccccc3c2cc2c1[nH]c1ccccc12"
unit = "µg/mL"
censoring_qualifier = ">"
observed_measurement = 16

[[record]]
smi = "NCCCOc1c2[nH]c3ccc(F)cc3c2cc2c1[nH]c1ccc(F)cc12"
unit = "µg/mL"
censoring_qualifier = "="
observed_measurement = 2


----------
test system: Yersinia pestis (YP; Gram-negative); assay: microbe, parasite or virus in culture; assay type: cell-based; settings: read-out: MIC YP
Recorded MIC by entry
reported-property: MIC (µg/mL)

[[record]]
compound = "Nc1nnnn1CCCOc1c2[nH]c3ccc(Cl)cc3c2cc2c1[nH]c1ccc(Cl)cc12"
censoring_qualifier = ">"
observed_measurement = 8

[[record]]
compound = "C/N=C(\\NC)NCCCOc1c2[nH]c3ccc(Cl)cc3c2cc2c1[nH]c1ccc(Cl)cc12"
censoring_qualifier = "="
observed_measurement = 1

[[record]]
compound = "Clc1ccc2[nH]c3c(OCC4CCCN4)c4[nH]c5ccc(Cl)cc5c4cc3c2c1 (stereo not drawn)"
censoring_qualifier = "="
observed_measurement = 1

[[record]]
compound = "OC1CN(CCCOc2c3[nH]c4ccc(Cl)cc4c3cc3c2[nH]c2ccc(Cl)cc23)C1"
censoring_qualifier = "="
observed_measurement = 4

[[record]]
compound = "N[C@H]1CCN(CCCOc2c3[nH]c4ccc(F)cc4c3cc3c2[nH]c2ccc(F)cc23)C1"
censoring_qualifier = "="
observed_measurement = 4

[[record]]
compound = "CN(C)CC#Cc1c2[nH]c3ccc(F)cc3c2cc2c1[nH]c1ccc(F)cc12 [drawing 210]"
censoring_qualifier = "="
observed_measurement = 2

[[record]]
compound = "CC(C)/N=C(/NCCCOc1c2[nH]c3ccc(F)cc3c2cc2c1[nH]c1ccc(F)cc12)NC(C)C"
censoring_qualifier = "="
observed_measurement = 4

[[record]]
compound = "Fc1ccc2[nH]c3c(O[C@@H]4CCNC4)c4[nH]c5ccc(F)cc5c4cc3c2c1 [drawing 253]"
censoring_qualifier = "="
observed_measurement = 1

[[record]]
compound = "CCN(CC)CCOc1c2[nH]c3ccc(F)cc3c2cc2c1[nH]c1ccc(F)cc12"
censoring_qualifier = ">"
observed_measurement = 16


----------
system: Yersinia pestis (YP; Gram-negative); assay: microbe, parasite or virus in culture; type: cell-based; settings: read-out: MIC YP
Here the recorded MIC is given for each entry.
reported-property: MIC

[[record]]
compound = "CNCCOc1c2[nH]c3ccc(F)cc3c2cc2c1[nH]c1ccc(F)cc12"
reported_property = "MIC"
observed_measurement = "8 µg/mL"

[[record]]
compound = "NCCOc1c2[nH]c3ccc(Cl)cc3c2cc2c1[nH]c1ccc(Cl)cc12"
reported_property = "MIC"
observed_measurement = "2 µg/mL"

[[record]]
compound = "COc1c2[nH]c3ccc(F)cc3c2c(N2CCCC2)c2c1[nH]c1ccc(F)cc12"
reported_property = "MIC"
observed_measurement = "> 16 µg/mL"

[[record]]
compound = "Cc1c2[nH]c3ccc(F)cc3c2cc2c1[nH]c1ccc(F)cc12"
reported_property = "MIC"
observed_measurement = "> 16 µg/mL"

[[record]]
compound = "COc1c2[nH]c3ccc(F)cc3c2cc2c1[nH]c1ccc(F)cc12 [drawing 194]"
reported_property = "MIC"
observed_measurement = "> 16 µg/mL"

[[record]]
compound = "CN(C)CCCc1c2[nH]c3ccc(F)cc3c2cc2c1[nH]c1ccc(F)cc12"
reported_property = "MIC"
observed_measurement = "8 µg/mL"

[[record]]
compound = "Clc1ccc2[nH]c3c(OCCCNCc4cnc[nH]4)c4[nH]c5ccc(Cl)cc5c4cc3c2c1"
reported_property = "MIC"
observed_measurement = "4 µg/mL"

[[record]]
compound = "N=C(N)NCCCOc1c2[nH]c3ccc(Cl)cc3c2cc2c1[nH]c1ccc(Cl)cc12 [drawing 217]"
reported_property = "MIC"
observed_measurement = "1 µg/mL"

[[record]]
compound = "N=C(N)NCCCOc1c2[nH]c3ccc(F)cc3c2cc2c1[nH]c1ccc(F)cc12 [drawing 232]"
reported_property = "MIC"
observed_measurement = "8 µg/mL"


----------
Consider the following compounds and their measured MIC readings.
system: Burkholderia pseudomallei (BP; Gram-negative); assay: microbe, parasite or virus in culture; format: cell-based; settings: read-out: MIC BP
reported-property: MIC

[[record]]
compound = "Fc1ccc2[nH]c3c(OC4CCCNC4)c4[nH]c5ccc(F)cc5c4cc3c2c1 (centres unmarked)"
observed_measurement = "> 8 µg/mL"

[[record]]
compound = "COc1c2[nH]c3ccc(F)cc3c2cc2c1[nH]c1ccc(F)cc12 [drawing 194]"
observed_measurement = "> 16 µg/mL"

[[record]]
compound = "Clc1ccc2[nH]c3c(OCC4CCCN4)c4[nH]c5ccc(Cl)cc5c4cc3c2c1 (centres unmarked)"
observed_measurement = "8 µg/mL"

[[record]]
compound = "OC1CCN(CCOc2c3[nH]c4ccc(F)cc4c3cc3c2[nH]c2ccc(F)cc23)CC1"
observed_measurement = "> 8 µg/mL"

[[record]]
compound = "FC(F)(F)c1c2[nH]c3ccccc3c2cc2c1[nH]c1ccccc12"
observed_measurement = "> 16 µg/mL"


----------
// MIC lookup, one value per entry
system: penicillin-resistant S. pneumoniae (PRSP); assay: microbe, parasite or virus in culture; assay type: cell-based; details: Streptococcus pneumoniae, read-out: MIC PRSP
reported-property: MIC

[[record]]
molecule = "CCOC(=O)c1ccc2[nH]cc(Cc3c(C)[nH]c4ccccc34)c2c1"
reported_property = "MIC"
observed_measurement = "8 µg/mL"

[[record]]
molecule = "C=C(c1c[nH]c2ccccc12)c1c[nH]c2ccccc12"
reported_property = "MIC"
observed_measurement = "2 µg/mL"

[[record]]
molecule = "c1ccc2[nH]c(Cc3cc4ccccc4[nH]3)cc2c1"
reported_property = "MIC"
observed_measurement = "2 µg/mL"

[[record]]
molecule = "CCOC(=O)Oc1c2[nH]c3ccccc3c2cc2c1[nH]c1ccccc12"
reported_property = "MIC"
observed_measurement = "2 µg/mL"

[[record]]
molecule = "c1ccc2c(Cc3[nH]c4ccccc4c3Cc3c[nH]c4ccccc34)c[nH]c2c1"
reported_property = "MIC"
observed_measurement = "2 µg/mL"

[[record]]
molecule = "c1ccc2c(Cc3c[nH]c4ccccc34)c[nH]c2c1"
reported_property = "MIC"
observed_measurement = "8 µg/mL"

[[record]]
molecule = "c1ccc2[nH]c(Cc3c[nH]c4ccccc34)cc2c1"
reported_property = "MIC"
observed_measurement = "1 µg/mL"

[[record]]
molecule = "Cc1c2[nH]c3ccccc3c2cc2c1[nH]c1ccccc12 [drawing 263]"
reported_property = "MIC"
observed_measurement = "1 µg/mL"


----------
system: Yersinia pestis (YP; Gram-negative); experiment: microbe, parasite or virus in culture; type: cell-based; conditions: read-out: MIC YP
Some compounds, each annotated with its measured log10 of MIC.
reported-property: log10 of MIC (log10 of the value in µg/mL)

[[record]]
compound = "Clc1ccc2[nH]c3c(OCC4CCNCC4)c4[nH]c5ccc(Cl)cc5c4cc3c2c1"
observed_measurement = 0.30

[[record]]
compound = "NCCCOc1c2[nH]c3ccc(Cl)cc3c2cc2c1[nH]c1ccc(Cl)cc12"
observed_measurement = 0.30

[[record]]
compound = "N[C@H]1CCN(CCCOc2c3[nH]c4ccc(Cl)cc4c3cc3c2[nH]c2ccc(Cl)cc23)C1"
observed_measurement = 0.30

[[record]]
compound = "Clc1ccc2[nH]c3c(OC4CCNC4)c4[nH]c5ccc(Cl)cc5c4cc3c2c1 (stereo not drawn)"
observed_measurement = 0.00

[[record]]
compound = "CC(CN(C)C)Oc1c2[nH]c3ccc(F)cc3c2cc2c1[nH]c1ccc(F)cc12 (stereo not drawn)"
observed_measurement = 1.20

[[record]]
compound = "Nc1nc(N)n(CCCOc2c3[nH]c4ccc(Cl)cc4c3cc3c2[nH]c2ccc(Cl)cc23)n1"
observed_measurement = 0.90

[[record]]
compound = "OC1CCN(CCOc2c3[nH]c4ccc(F)cc4c3cc3c2[nH]c2ccc(F)cc23)CC1"
observed_measurement = 0.60

